test system: Wolbachia pipientis; assay: Anti-Wolbachia Cell-Based Screen; format: functional; design: scale not given: in the data most compounds retested in dose-response had high values; details: 5 µM
Screen size: about 48,000 compounds; about 13,000 (27%) showed an effect of 50% or more. This is one part of the list.
readout-type: Percent Effect (%)
Answers are plain numbers, in %.

Each compound below has a reported value. Please supply its Percent Effect.
1. CCc1nc2n(n1)CC(NCc1nc(-c3cccnc3)no1)CC2 (stereo not drawn)
2. Cc1ccc(CN2CC[C@H]3O[C@@H](C(=O)N4CCCO4)CC[C@H]32)s1.O=C(O)C(F)(F)F
3. CCc1nc2n(n1)CC(NCc1nc(Cc3ccccc3)no1)CC2 (stereo not drawn)

Found:
1. -12.29
2. -7.276
3. 105.9
